Values from patent US20240270821A1

- TESTED_ON: human glucagon receptor (human) (UniProt P47871)
- Sequence (P47871 26-477): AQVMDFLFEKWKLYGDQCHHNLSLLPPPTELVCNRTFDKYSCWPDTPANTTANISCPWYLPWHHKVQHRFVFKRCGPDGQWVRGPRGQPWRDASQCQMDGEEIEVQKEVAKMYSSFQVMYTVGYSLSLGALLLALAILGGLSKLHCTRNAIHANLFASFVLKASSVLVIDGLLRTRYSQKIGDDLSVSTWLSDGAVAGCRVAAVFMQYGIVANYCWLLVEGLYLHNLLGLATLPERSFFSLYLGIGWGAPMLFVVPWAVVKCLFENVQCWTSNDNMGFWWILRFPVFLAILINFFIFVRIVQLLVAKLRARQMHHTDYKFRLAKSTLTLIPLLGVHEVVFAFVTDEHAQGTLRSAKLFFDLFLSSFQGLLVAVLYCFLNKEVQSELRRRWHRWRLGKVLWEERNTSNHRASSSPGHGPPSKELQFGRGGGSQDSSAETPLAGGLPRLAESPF
- EXPERIMENTAL_DETAILS: cell-based or functional assay
Entries whose Relative cAMP EC50 is below 3 nM take TRUE; entries at or above 3 nM take FALSE.

The examples below pair each entry with its known result.
>>> label("YXQGTFTSDFSRXLDKKAQXAFIEYLIEXSPSSGAPPPSGS (synthetic construct; SITE 2: note = 2-Aminoisobutyric Acid; SITE 13: note = alpha-methyl-leucine; SITE 17: note = Lysine is chemically modified through conjugation of the epsilon-amino group of the Lysine side chain with (2-[2-(2-Amino-ethoxy)-ethoxy]-acetyl)-(gamma-Glu)-CO-(CH2) 16-CO2H; SITE 20: n) [Example 806]")
"FALSE"
>>> label("YXQGTFTSDXSXXLDXKAQXAFIEYLIAGGPSSGEPPPSGTEE (non-natural residues, acylated Lys, C-terminal amide; synthetic construct; SITE 2: note = 2-Aminoisobutyric Acid; SITE 10: note = 3-(4-Pyridyl)-L-alanine; SITE 12: note = L-ornithine; SITE 13: note = alpha-methyl-leucine; SITE 16: note = L-ornithine; SITE 17: note = Lysine is chemically modified through conjugation of the epsilon-amino group of the Lys) [Example 985]")
"FALSE"
>>> label("YXQGTFTSDFSXXLDKKAQXAFIEYLLEXGPSSGAPPPSGX (synthetic construct; SITE 2: note = 2-Aminoisobutyric Acid; SITE 12: note = L-ornithine; SITE 13: note = alpha-methyl-leucine; SITE 17: note = Lysine is chemically modified through conjugation of the epsilon-amino group of the Lysine side chain with (2-[2-(2-Amino-ethoxy)-ethoxy]-acetyl)-(gamma-Glu)) [Example 279]")
"FALSE"
>>> label("YXQGTFTSDFSXXLDKKAQXAFIEYLIEXGESSGAPPPSGE (non-natural residues, acylated Lys, C-terminal amide; synthetic construct; SITE 2: note = 2-Aminoisobutyric Acid; SITE 12: note = L-ornithine; SITE 13: note = alpha-methyl-leucine; SITE 17: note = Lysine is chemically modified through conjugation of the epsilon-amino group of the Lysine side chain with (2-[2-(2-Amino-ethoxy)-ethoxy]-acetyl)-(gamma-Glu)) [Example 228]")
"TRUE"

Let us examine a further case.
I'd appreciate it if you could check whether YXQGTXTSDXXIXLDXKAAXEFIEXLIEGGPSSGAPPPSGTGX (synthetic construct; SITE 2: note = 2-Aminoisobutyric Acid; SITE 6: note = alpha-methyl-2-fluoro-L-phenylalanine; SITE 10: note = 3-(4-Pyridyl)-L-alanine; SITE 11: note = alpha-methyl-L-serine; SITE 13: note = alpha-methyl-leucine; SITE 16: note = L-ornithine; SITE 17: note = Lysine is chemically mo) [Example 724] has Relative cAMP EC50 smaller than 3 nM.
TRUE
